- System: SK-MEL-28 melanoma
- Assay Remarks: NCI-60 one-dose screen, 48 h
- Applied Conditions: 10 µM unless noted
About 83,000 compounds went through this panel and 20% of them were active in at least one assay; those are over-represented in the sample as a whole. Active and inactive are the calls of the source. Rule for the calls: active = growth percent below 10; inactive = the rest.
Labels: y for active, n for inactive

                                    molecule  label_class
 0  COc1nc2c(cc1S(=O)(=O)c1ccccc1)CCc1c-2cnn1-c1ccc(Cl)cc1            n
 1                    Cc1nc2nc(N)nc(N)c2nc1C            n
 2     CCCCN(CC)CCCCCCCCCCN1CCCc2cc(OC)ccc21            n
 3  O=S(=O)(Nc1ccc(F)c(Cl)c1)c1ccc(-c2cnc(C3CC3)o2)cc1            n
 4       O=[N+]([O-])c1c(F)cccc1Nc1cccc(F)c1            n
 5  c1ccc(-c2nc(N3CCOCC3)c3c4c(sc3n2)CCCCC4)nc1            n
 6  O=[N+]([O-])c1cccc(-c2nc3sccn3c2-c2ccnc(NCCCNS(=O)(=O)c3cccc(F)c3)n2)c1            y
 7  CCCCNP1(NCCCC)=NP(NCCCC)(NCCCC)=NP(NCCCC)(NCCCC)=NP(NCCCC)(NCCCC)=N1            n
 8    Cc1cc(Nc2nc(N3CCNCC3)nc3ccccc23)n[nH]1            n
 9  COc1cc(-c2c3c(nc4c2c(C)nn4-c2ccccc2)-c2ccccc2C(=O)C3=O)cc(OC)c1OC            n
10            O=c1cc(-c2ccccc2)[nH]c2ccccc12            n
11  COc1ccc2nc3cc(Cl)ccc3c(NCCNCC(O)CO)c2c1 (stereo unspecified)            n
12  C[C@]12C[C@@H](c3ccoc3)OC(=O)[C@@H]1CC[C@]1(C)[C@@H]2CC[C@@H](O)[C@]1(C)O            n
13  CC1(C)CC(C(=O)OCCCCCCCCCCC[P+](c2ccccc2)(c2ccccc2)c2ccccc2)C(C)(C)N1O (stereo unspecified)            y
14  CCOc1ccc(Nc2nc(-c3c(C)nc4ncccn34)cs2)cc1            n
15  COc1ccc(-c2cn3c(-c4ccc(OC)cc4)cnc3c(Oc3ccc4c(C)cc(=O)oc4c3)n2)cc1            y
16  CCOC(=O)c1ccc2c(c1)nc(/C=C/c1ccc(Cl)cc1)n2-c1cc(C(C)(C)C)[nH]n1            n
17  COc1ccc(-c2cc(-c3ccc(N(C)C)cc3)nc(NC(=O)c3ccncc3)n2)cc1            n
18  COc1cc(NCCCCCN=C(N)NC(N)=NC(C)C)c2ncccc2c1            n
19      COc1ccc(-c2c(C)noc2-c2ccc(O)cc2O)cc1            n
20                c1ccc2sc(SCCCn3ccnc3)nc2c1            n

====

- Tested on: NCI/ADR-RES ovarian
- Assay Remarks: NCI-60 one-dose screen, 48 h (100 = growth as untreated, 0 = no growth, -100 = all killed)
- Applied Conditions: 10 µM unless noted
About 83,000 compounds went through this panel and 20% of them were active in at least one assay; those are over-represented in the sample as a whole.
In this section, each of the molecules is paired with its reported growth.
Quantity: growth (%)

Molecule	Assay System	Obs Value
C/C(=C(/c1ccc(O)cc1)c1ccc(Cl)cc1)c1ccccc1	NCI/ADR-RES ovarian	-71
Nc1cccc(NC(=O)C(=O)Nc2cccc(N)c2)c1	NCI/ADR-RES ovarian	93.1
CC(C)(C)n1cc(-c2ccnc(NCCNS(=O)(=O)c3ccccc3)c2)c(-c2cccc(O)c2)n1	NCI/ADR-RES ovarian	74.8
Cc1ccc(N)cc1F	NCI/ADR-RES ovarian	94.2
O=S(=O)(Nc1ccc(F)c(Cl)c1)c1ccc(-c2cnc(C3CC3)o2)cc1	NCI/ADR-RES ovarian	-17
CCOC(=O)CC(C)=N	NCI/ADR-RES ovarian	112
O=C(CN1CCOCC1)Nc1ccc(Cn2nnc3c2C(=O)c2nnn(Cc4ccc(NC(=O)CN5CCOCC5)cc4)c2C3=O)cc1	NCI/ADR-RES ovarian	103
O=C(/C=C/c1ccc(B(O)O)cc1)/C=C/c1ccc(B(O)O)cc1	NCI/ADR-RES ovarian	91.7
CCN(CC)CCCC(C)NCCCNc1cccc2cccnc12 (configuration not stated)	NCI/ADR-RES ovarian	92.3
Nc1cc2ccncc2c2ccccc12	NCI/ADR-RES ovarian	53.2
C=CCSc1nnc(-c2ccc(C(C)(C)C)cc2)n1-c1cccc(C(F)(F)F)c1	NCI/ADR-RES ovarian	22.9
CN1CCN(Cc2ccc(NC(=O)c3[nH]ncc3Nc3ncnc4sccc34)cc2)CC1	NCI/ADR-RES ovarian	16.4
CC(=O)OCC1OC(OC2=C(CC=C(Cl)Cl)C(=O)c3ccccc3C2=O)C(OC(C)=O)C(OC(C)=O)C1OC(C)=O (configuration not stated)	NCI/ADR-RES ovarian	93.1
CCCCCCCCCCCCCCCCCCNC(=O)[C@H]1CSC(c2ccc(F)c(OC)c2)N1 (some centres not stated)	NCI/ADR-RES ovarian	-42.6
CCCCNC(=O)NS(=O)(=O)c1ccc(N2N=C(c3cc(C)ccc3C)CC2c2cc(OC)c(OC)c(OC)c2)cc1 (configuration not stated)	NCI/ADR-RES ovarian	30.3
CC[C@]12C=CCN3CC[C@@]4(c5ccc(OC)cc5N(C)[C@H]4[C@@](O)(C(=O)OC)[C@@H]1OC(=O)CCC(=O)N[C@@H](Cc1c[nH]c4ccccc14)C(=O)OC)[C@@H]32	NCI/ADR-RES ovarian	105
CCC(=O)OCc1cccc(OC)c1	NCI/ADR-RES ovarian	106
Cc1ccc2c(c1)C(=O)/C(=C/c1ccc(OCC(=O)c3ccccc3)cc1)O2	NCI/ADR-RES ovarian	88.1
C=C1C(=O)O[C@H]2[C@H]1CC/C(Cn1cc(Cn3ccc4ccccc43)nn1)=C\CC[C@@]1(C)O[C@@H]21	NCI/ADR-RES ovarian	77.9
CCN(CC)CCCNc1cccc2c(SCc3ccccc3)ccnc12	NCI/ADR-RES ovarian	42
Cc1cc2cc3cc(C)c(N(C)C)cc3nc2cc1N(C)C	NCI/ADR-RES ovarian	82.5
COc1cc(-c2cc(-c3nc4ccc(Cl)cc4[nH]3)[nH]n2)cc(OC)c1OC	NCI/ADR-RES ovarian	20
OC(c1cc(-c2ccccc2)nc2ccc(Cl)cc12)C1CCCCN1 (configuration not stated)	NCI/ADR-RES ovarian	68.5
CCN(CC)CCCNc1cc(OC)cc2nc3cc(Cl)ccc3nc12	NCI/ADR-RES ovarian	-50.2
CCOC(=O)C(CC)n1c(=O)c2cc(OC)c(OC)cc2c2cnc3[nH]ccc3c21 (configuration not stated)	NCI/ADR-RES ovarian	73.3
O=C(/C=C/c1ccc(Cl)cc1)/C=C/c1cc2ccccc2[nH]c1=O	NCI/ADR-RES ovarian	86
CCCCCCCCOC(=O)CC[C@@H](C)[C@H]1CC[C@H]2[C@@H]3[C@H](OC(=O)CCN)C[C@@H]4C[C@H](OC(=O)CCN)CC[C@]4(C)[C@H]3C[C@H](OC(=O)CCN)[C@]12C	NCI/ADR-RES ovarian	101
Cc1ccc2c(c1)C(=O)c1c-2c(OCCCN(C)C)nc2ccccc12	NCI/ADR-RES ovarian	25.1
O=C1Nc2ccc(Br)cc2C12CC(c1ccccc1)=NN2 (configuration not stated)	NCI/ADR-RES ovarian	40.8
COc1ccc(N(Cc2cc(OC)c(OC)c(OC)c2)C2OC(=O)c3ccccc32)cc1 (configuration not stated)	NCI/ADR-RES ovarian	10.1
CCN(CC)CC(O)CNc1c2ccc([N+](=O)[O-])cc2nc2cc(OC)c(OC)cc12 (configuration not stated)	NCI/ADR-RES ovarian	51.7
CC#CC#Cc1cccc(=O)o1	NCI/ADR-RES ovarian	90.1
COc1ccc(C(=O)c2sc3nc4c(cc3c2N)CCCC4)cc1OC	NCI/ADR-RES ovarian	19.7
Oc1ccccc1/C=N/Nc1ccc2ccccc2n1	NCI/ADR-RES ovarian	22.9
C[C@@H]1CCC2=C(CCC[C@]2(C)C(=O)O)[C@@]1(C)CCc1ccoc1	NCI/ADR-RES ovarian	98.7
C=C1CC[C@@H]2[C@](C)(COC(C)=O)[C@H](OC(C)=O)CC[C@@]2(C)[C@@H]1CC(Nc1ccc(S(=O)(=O)Nc2nc(C)cc(C)n2)cc1)C1=CCOC1=O (some centres not stated)	NCI/ADR-RES ovarian	66.6
CNC(=S)N/N=C/CSC/C=N/NC(=S)NC	NCI/ADR-RES ovarian	97.9
CCN(CC)C12CCCCC1(C)C(C#N)(C#N)C(C#N)=C(N)O2 (configuration not stated)	NCI/ADR-RES ovarian	101
NC(CC(=O)O)C(=O)OCc1ccccc1 (configuration not stated)	NCI/ADR-RES ovarian	101
Nc1nc(SCc2ccccc2)c2ncn(C3CCCC3)c2n1	NCI/ADR-RES ovarian	92.5
Oc1ccc2c(=S)cc(-c3ccc(Br)cc3)oc2c1O	NCI/ADR-RES ovarian	-8.87
CCN(CC)Cc1cc(Nc2c3ccc(Cl)cc3nc3c(C)cccc23)ccc1O	NCI/ADR-RES ovarian	-49.8
